Tested on: Escherichia coli
Test: In vitro antibacterial evaluation: minimum inhibitory concentration (MIC), broth dilution method
Format: cell-based
Details: 5×10^5 CFU/mL, 18 hours at 35° C.
READOUT_NAME: MIC Escherichia coli (GC 4559) (µg/mL)
One number for each entry, in µg/mL.

MOLECULE: CCC(CC)C1OCC2OC(OC3C(CO)OC(Oc4ccc(CC5NC(=O)C(C(C)c6ccccc6)NC(=O)CNC(=O)C(CO)NC(=O)C(C(O)C6CNC(=N)N6C6OC(CO)C(O)C(O)C6O)NC(=O)C(C(O)C6CNC(=N)N6)NC5=O)cc4)C(O)C3O)C(O)C(O)C2O1 (stereo not drawn)
SYSTEM_NAME: Escherichia coli
READOUT_NAME: MIC Escherichia coli (GC 4559)
ASSAY_VALUE: 64
--
MOLECULE: CC(c1ccccc1)C1NC(=O)CNC(=O)C(CO)NC(=O)C(C(O)C2CNC(=N)N2C2OC(CO)C(O)C(O)C2O)NC(=O)C(C(O)C2CNC(=N)N2)NC(=O)C(Cc2ccc(OC3OC(CO)C(OC4OC5COC(C6CC=CCC6)OC5C(O)C4O)C(O)C3O)cc2)NC1=O (stereo not drawn)
SYSTEM_NAME: Escherichia coli
READOUT_NAME: MIC Escherichia coli (GC 4559)
ASSAY_VALUE: 64

So what does the record say about MIC Escherichia coli (GC 4559) for CC(c1ccccc1)C1NC(=O)CNC(=O)C(CO)NC(=O)C(C(O)C2CNC(=N)N2C2OC(CO)C(O)C(O)C2O)NC(=O)C(C(O)C2CNC(=N)N2)NC(=O)C(Cc2ccc(OC3OC(CO)C(OC4OC5COC(Cc6ccc(Br)cc6)OC5C(O)C4O)C(O)C3O)cc2)NC1=O (stereo not drawn) ?
16
